- System: DMPK2
- Construct: gene CDC42BPG
- recordedConditions: concentration: 1 μM, replicates: in singlicate; n = 1;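 note: KINOMEscan kinase panel screen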
reportedEndpoint: %Inh (%)
Answers are plain numbers, in %.

[[record]]
compound = "COc1ccc(Nc2ncc(C#N)c(Nc3ccccc3C(N)=O)n2)cc1N1CCN(C)CC1.Cl"
measured = 89

[[record]]
compound = "Fc1ccc(-c2ncn(CCCN3CCOCC3)c2-c2ccccn2)cc1"
measured = 0


# batch: return %Inh for each of the 2 compounds below
1. Nc1nc(-c2ccc3c(N)n[nH]c3c2)cc(N2CCCC2)n1
2. O=C(NCCNc1ccnc(Nc2ccc(F)cc2)n1)c1cc2ccccc2s1

(A)
1. 0
2. 0

# batch: return %Inh for each of the 7 compounds below
1. COc1cc2ncn(-c3cc(OCc4sccc4Cl)c(C(N)=O)s3)c2cc1OC
2. COc1ccc(S(=O)(=O)NC2CCN(c3cc(C)nc(Nc4cccc(C#N)c4)n3)CC2)cc1.O=C(O)C(F)(F)F
3. c1ccc(-c2n[nH]cc2-c2ccnc3ccccc23)nc1
4. O=C(c1ccc(-c2cc(-c3c[nH]nc3-c3ccccn3)ccn2)cc1)N1CCOCC1
5. CCc1nc(-c2cccc(C)c2)c(-c2ccnc(NCc3ccccc3)c2)s1
6. COCCNC(=O)c1ccc(-c2cc(C(=O)NC3CC3)cc(F)c2C)cc1
7. C[C@@H](Oc1cc(-n2cnc3ccc(NC(=O)NC(C)(C)C)cc32)sc1C(N)=O)c1ccccc1Cl

(A)
0
0
18
0
5
0
16

# batch: return %Inh for each of the 2 compounds below
1. O=c1cc(N2CCOCC2)nc2n(Cc3cccc(C(F)(F)F)c3)ccn12
2. CNc1ncnc2[nH]ncc12

(A)
1: 0; 2: 0

###

- Test system: MYLK4
- recordedConditions: concentration: 1 μM, replicates: in singlicate; n = 1
Please go through the items and note down their %Inh.
Numbers only, in %.

Some molecules with recorded %Inh:
[[record]]
smi = "c1ccc(-c2cc(-c3c[nH]nc3-c3ccccn3)ccn2)cc1"
measured = 0

[[record]]
smi = "O=C(NCCNc1ccnc(Nc2ccc(F)cc2)n1)c1cc2ccccc2s1"
measured = 0

[[record]]
smi = "Fc1ccc(-c2ncn(CCCN3CCOCC3)c2-c2ccccn2)cc1"
measured = 0


(Q) Reported %Inh, molecule CN(C1=C(c2ccccc2)C(=O)NC1=O)c1ccccc1 : ____
(A) 19

###

- Test system: LYN
- recordedConditions: concentration: 1 μM, replicates: in singlicate; n = 1
Please go through the items and note down their %Inh.
Answers are plain numbers, in %.

[[record]]
molecule = "Cc1ccc(NC(=O)c2ccnc(N3CCN(C)CC3)c2)cc1-c1ccc(C(=O)NCC2CC2)cc1"
measured = 0


# batch: return %Inh for each of the 7 molecules below
1. [2H]C([2H])(c1cccc(C(F)(F)F)c1C)n1ccn2c(=O)nc(N3CCOCC3)cc12
2. O=C(NCCNc1ccnc(Nc2ccc(F)cc2)n1)c1cc2ccccc2s1
3. O=c1cc(N2CCOCC2)nc2n(Cc3cccc(C(F)(F)F)c3)ccn12
4. CC(C)(CN)c1nc(-c2ccc(Cl)c(O)c2)c(-c2ccncc2)[nH]1.O=C(O)C(F)(F)F
5. O=c1cc(N2CCOCC2)nc2n(Cc3cccc4ccccc34)ccn12
6. CCCCCc1nc2c(N)ncnc2n1CCCCC
7. NCC(NC(=O)c1cc(-c2cn[nH]c2)c(-c2ccnc3[nH]ccc23)s1)c1ccccc1.O=C(O)C(F)(F)F.O=C(O)C(F)(F)F (centres unmarked)

(A)
0
0
0
91.1
0
0
0

# batch: return %Inh for each of the 6 molecules below
1. CCc1ccnc(/C=C/c2n[nH]c3cc(Sc4ccccc4C(=O)NC)ccc23)c1
2. Nc1nc(-c2ccc3c(N)n[nH]c3c2)cc(N2CCCC2)n1
3. COc1ccc(Nc2nccc(N3CCC(NC(=O)Nc4cccc(C(C)=O)c4)C3)n2)cc1 (centres unmarked)
4. CC(=O)Nc1ccc(COc2ccc(Nc3ccnc4cc(-c5ccccn5)ccc34)cc2)cc1.Cl
5. O=c1cc(N2CCOCC2)nc2n(Cc3cccc(F)c3)ccn12
6. O=C(c1ccc(-c2cc(-c3c[nH]nc3-c3ccccn3)ccn2)cc1)N1CCOCC1

(A)
23
0
0
1
0
0

Numbers sourced from paper PMC5540273.
